Test: gradient 5% acetonitrile 3 min, to 50% in 2 min, to 85% in 15 min, held 3 min, 100 µL/min
Settings: column: Zorbax Extend-C18 2.1 x 50 mm; eluents: water / acetonitrile, 0.1% formic acid
Measured metric: RP-LC retention time (s)

A. Cn1nc(CNC(=O)CNC(=O)Cc2ccc(Cl)cc2)c2ccccc21
B. O=C(CCc1nc(-c2ccc(N3CCCC3)cc2)no1)N1CCN(c2ccc(Cl)cc2)CC1
Quick check, higher RP-LC retention time between A and B ? Selection: enter the item's label.
B
(B: 1240 s, A: 742 s)

* * *

Experiment: gradient 5% acetonitrile 3 min, to 50% in 2 min, to 85% in 15 min, held 3 min, 100 µL/min
Conditions: column: Zorbax Extend-C18 2.1 x 50 mm; eluents: water / acetonitrile, 0.1% formic acid
Measured metric: RP-LC retention time (s)

I. O=C(NC1CCCC1)C1CCN(S(=O)(=O)c2cc(C(=O)N3CCOCC3)cs2)CC1
II. CC1CCN(c2nn(CC(=O)Nc3ccc4c(c3)OCCO4)c(=O)c3ccccc23)CC1
Between I and II , which one has the lower reported RP-LC retention time value? Field: selected label. Fill in the label of the entry you choose.
I

I. CC(=O)N1CCc2cc(N3CC(C(=O)Nc4ccccc4F)CC3=O)ccc21 (centres undefined)
II. CCc1nc2cc(-c3noc(/C=C/c4ccc(C)o4)n3)ccc2o1
Thinking about recorded RP-LC retention time values, which is higher, I or II ? Respond with the label that goes with your answer.
II

1. COc1cc(NC(=O)N2CCN(Cc3nc4ccc(C)cc4o3)CC2)cc(OC)c1OC
2. COc1cccc(C2=NN(C(C)=O)C(c3cccc(Br)c3)O2)c1OC(C)=O (centres undefined)
Identify the entry with the larger RP-LC retention time. Options: 1 and 2 When you have decided, please share the label of that item.
2
